// reported OD max for each item listed
- study-system: T1, recombinant human LAG3 Fc Chimera Protein (R&D Systems, 2319-L3) (human, UniProt P18627 23-450)
- T1 construct: Bought reagent
- T1 sequence (looked up): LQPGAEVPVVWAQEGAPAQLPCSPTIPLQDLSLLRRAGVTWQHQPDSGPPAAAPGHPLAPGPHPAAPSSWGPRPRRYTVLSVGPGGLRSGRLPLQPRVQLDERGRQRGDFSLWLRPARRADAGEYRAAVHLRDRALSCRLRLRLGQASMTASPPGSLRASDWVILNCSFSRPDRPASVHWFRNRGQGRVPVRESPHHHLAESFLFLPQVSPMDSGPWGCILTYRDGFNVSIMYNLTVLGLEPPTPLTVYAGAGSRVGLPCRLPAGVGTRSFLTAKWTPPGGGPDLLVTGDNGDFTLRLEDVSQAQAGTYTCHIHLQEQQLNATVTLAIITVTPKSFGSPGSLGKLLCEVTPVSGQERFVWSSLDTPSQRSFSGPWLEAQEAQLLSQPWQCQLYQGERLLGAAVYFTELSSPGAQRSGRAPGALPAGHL
- procedure-summary: ELISA, plate coated with human LAG3 Fc chimera
Just the number plus its unit, please.

query: I'd like to know its OD max. The binder in question is bivalent 17D7 aVH-Fc (Fc fusion) EVQLVESGGGLVQPGGSLRLSCAASGFNIKDTCIGWVRRAPGKGTELVAEICTDIGYTRYADSVKGRFTISADTSKNTAYLQMNSLRAEDTAVYYCAAGEGSSGFHYWGQGTTVTVSSGGGGSGGGGSDKTHTCPPCPAPEAAGGPSVFLFPPKPKDTLMISRTPEVTCVVVDVSHEDPEVKFNWYVDGVEVHNAKTKPREEQYNSTYRVVSVLTVLHQDWLNGKEYKCKVSNKALGAPIEKTISKAKGQPREPQVYTLPPSRDELTKNQVSLTCLVKGFYPSDIAVEWESNGQPENNYKTTPPVLDSDGSFFLYSKLTVDKSRWQQGNVFSCSVMHEALHNHYTQKSLSLSPGK
result: 1.2 OD

query: I'd like to know its OD max. The binder in question is bivalent P11E2 aVH-Fc (Fc fusion) EVQLVESGGGLVQPGGSLRLSCAASGFNIKDTCIGWVRRAPGKGTELVAEICDDIGYTRYADSVKGRFTISADTSKNTAYLQMNSLRAEDTAVYYCASQEHQWSFKYWGQGTTVTVSSGGGGSGGGGSDKTHTCPPCPAPEAAGGPSVFLFPPKPKDTLMISRTPEVTCVVVDVSHEDPEVKFNWYVDGVEVHNAKTKPREEQYNSTYRVVSVLTVLHQDWLNGKEYKCKVSNKALGAPIEKTISKAKGQPREPQVYTLPPSRDELTKNQVSLTCLVKGFYPSDIAVEWESNGQPENNYKTTPPVLDSDGSFFLYSKLTVDKSRWQQGNVFSCSVMHEALHNHYTQKSLSLSPGK
result: 1.1 OD

query: I'd like to know its OD max. The binder in question is bivalent P11E9 aVH-Fc (Fc fusion) EVQLVESGGGLVQPGGSLRLSCAASGFNIKDTCIGWVRRAPGKGTELVAEICHDIGYTRYADSVKGRFTISADTSKNTAYLQMNSLRAEDTAVYYCAAEEHVASFEYWGQGTTVTVSSGGGGSGGGGSDKTHTCPPCPAPEAAGGPSVFLFPPKPKDTLMISRTPEVTCVVVDVSHEDPEVKFNWYVDGVEVHNAKTKPREEQYNSTYRVVSVLTVLHQDWLNGKEYKCKVSNKALGAPIEKTISKAKGQPREPQVYTLPPSRDELTKNQVSLTCLVKGFYPSDIAVEWESNGQPENNYKTTPPVLDSDGSFFLYSKLTVDKSRWQQGNVFSCSVMHEALHNHYTQKSLSLSPGK
result: 1.9 OD
